Biological target: DLL3 endogenously expressed on NCI-H82 cells (UniProt Q9NYJ7)
Sequence (Q9NYJ7 27-618): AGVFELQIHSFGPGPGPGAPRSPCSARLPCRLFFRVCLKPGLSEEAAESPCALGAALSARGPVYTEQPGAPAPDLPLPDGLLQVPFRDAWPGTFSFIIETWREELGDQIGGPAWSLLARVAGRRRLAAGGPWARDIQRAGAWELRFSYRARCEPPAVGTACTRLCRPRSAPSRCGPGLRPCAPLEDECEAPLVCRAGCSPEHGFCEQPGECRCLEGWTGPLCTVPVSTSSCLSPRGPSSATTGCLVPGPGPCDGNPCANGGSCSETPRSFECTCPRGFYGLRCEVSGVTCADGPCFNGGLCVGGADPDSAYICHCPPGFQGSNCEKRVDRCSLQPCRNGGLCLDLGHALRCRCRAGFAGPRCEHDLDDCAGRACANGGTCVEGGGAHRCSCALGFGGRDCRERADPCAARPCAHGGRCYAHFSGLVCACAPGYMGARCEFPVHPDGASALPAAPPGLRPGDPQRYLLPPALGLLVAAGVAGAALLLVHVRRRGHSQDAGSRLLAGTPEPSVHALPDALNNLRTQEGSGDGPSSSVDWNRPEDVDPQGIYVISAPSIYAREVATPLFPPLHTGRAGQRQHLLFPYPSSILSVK
Assay: FACS on NCI-H82 cells; antibody 0.16 nM
Would you mind telling me the reported MFI of each entry?
Give bare numbers.

mab014 scFv-hFc (Fc fusion, part only; not given: Linker and human IgG1 Fc, not shown: a dimerising Fc or GST) chain, part: DIQMTQSSSSFSVSLGDRVTITCKASEDIYNRLAWYQQKPGNTPRLLISGATSLETGVPSRFSGSGSGKDFTLSITSLQTEDVATYYCQQYWSLPWTFGGGTKLEIKEVQLHQSGPELVKPGTSVKISCKASGYTFTDYYMNWVKQSHGKSLEWIGDINPNHGDTGYNQKFTGKATLTVDKSSSTAYMELRSLTSEDSAVYYCARNFFYYGTTYGWYFDVWGTGTTVTVSS; 429

I'd like to know its MFI. The binder in question is Hab014VL3VH1-hFc (scFv, part only; not given: VL-VH linker and human IgG1 Fc, V domains shown, not shown: another chain or arm of the molecule; a dimerising Fc or GST; small tags and cut ends) VL: DIVMTQSPDSLAVSLGERATINCKASEDIYNRLAWYQQKPGQTPKLLISGATSLETGVPDRFSGSGSGKDFTLTISSLQAEDVAVYYCQQYWSLPWTFGGGTKVEIK VH: EVQLVQSGAEVKKPGASVKVSCKASGYTFTDYYMNWVRQAPGQRLEWMGDINPNHGDTGYNQKFTGRVTITVDKSASTAYMELSSLRSEDTAVYYCARNFFYYGTTYGWYFDVWGQGTTVTVSS 356
